Target: T1, AFP158/HLA-A*02:01 complex (human)
T1 construct: flowed as analyte in SPR
Assay: SPR, crude scFv captured, pMHC analyte;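 also: pMHC analyte injected at three concentrations, association phase of one hundred seconds, then running buffer for dissociation, rates fitted from both curves, KD derived from the rates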
recorded endpoint: koff
Remember to follow the number with its unit.

Exercise: For AS170036 VL1VH1-57H98Q (scFv, also called 09-AS170036 VL1VH1-57H98Q) scFv: QSALTQPRSVSGSPGQSVTISCAGTSSDVGSENYVSWYQQHPGKAPKLMIYQVNKRASGVPDRFSGSKSGNTASLTISGLQAEDEADYYCASYRSSDQNIVFGGGTKLTVLGGGGSGGGGSGGGGSEVQLVESGGGLVQPGGSLRLSCAASGFTFSSYAMSWVRQAPGKGLEWVSTINSGTGHPYYADSVKGRFTISRDNSKNTLYLQMNSLRAEDTAVYYCAKNFFDGSWFLGPPAMDYWGQGTLVTVSSHHHHHH , what is its reported koff?
Key: 0.0017 s⁻¹
